# protocol: in vitro
# condition_parameters: rat, Cell Toxicity IC50 (uM) [cFib assay], cFib assay
measurement_label: IC50

Example molecules with recorded IC50:
Exam item: Which IC50 reading was recorded for the molecule c1ccc2[nH]c(-c3cscn3)nc2c1 [Thiabendazole, reference compound] ?
Marked response: > 20 µM

Exam item: I'd like to know its IC50. The molecule in question is CCC(=O)O[C@]1(C(=O)CCl)[C@@H](C)C[C@H]2[C@@H]3CCC4=CC(=O)C=C[C@]4(C)[C@@]3(F)[C@@H](O)C[C@@]21C [Clobetasol propionate, reference compound]
Marked response: > 20 µM

Now for another entry.
Exam item: # lookup: IC50 of CN(C)CCc1c[nH]c2ccc(CS(=O)(=O)N3CCCC3)cc12 [Almotriptan, reference compound]
Marked response: > 20 µM

---

# Tested on: LPS-induced microglia activation
# protocol: Image-based assay of LPS-induced microglia activation (HTS and dose response)
# Type: cell-based, rat
# condition_parameters: Rattus norvegicus, Microglia, LPS-induced microglia activation, dose response; read-out: LPS IC50 (uM) (Suppl. Table 7)
Structures can show the parent of a compound that is named as a salt.
measurement_label: IC50 (µM)
Answers are plain numbers, in µM.

Example cases with answers are listed next.
Exam item: Lab note: need IC50 with LPS-induced microglia activation for entry Clc1ccc(C(OCCN2CCCCC2)c2ccccc2)cc1 (stereo not drawn) [Cloperastine hydrochloride, reference compound] , please look it up.
Marked response: 9

Exam item: For the record CCN(CC)C(=O)C1(c2ccccc2)CC1CN (stereo not drawn) [Milnacipran hydrochloride, reference compound] , what value of IC50 is listed for LPS-induced microglia activation?
Marked response: 20

Exam item: # get_value(readout= IC50, system= LPS-induced microglia activation) for CCCCC(=O)O[C@]1(C(=O)CO)CC[C@H]2[C@@H]3CCC4=CC(=O)CC[C@]4(C)[C@H]3[C@@H](O)C[C@@]21C [Hydrocortisone valerate, reference compound]
Marked response: 1

// switching to the query compound
Exam item: Request: IC50, test system LPS-induced microglia activation, entry C[C@H]1C[C@H]2[C@@H]3CCC4=CC(=O)C=C[C@]4(C)[C@@]3(F)[C@@H](O)C[C@]2(C)[C@@]1(O)C(=O)CO [Betamethasone, reference compound]
Marked response: 0.01

---

# Tested on: LPS-induced microglia activation
# protocol: Image-based assay of LPS-induced microglia activation (HTS and dose response)
# Format: cell-based, rat
# condition_parameters: Rattus norvegicus, Microglia, LPS-induced microglia activation, dose response; read-out: LPS IC50 (uM) (Suppl. Table 7)
For each record, write down the corresponding IC50.
One number for each entry, in µM.

Check out these entries, answers already filled in.
Exam item: Which IC50 is reported for this compound? `N[C@H](C(=O)O)[C@@H]1CC(Cl)=NO1`
Marked response: 1

Exam item: I am curious: what IC50 value has been reported for CC(=O)OCC(=O)[C@@]1(O)[C@H](OC(C)=O)C[C@H]2[C@@H]3CCC4=CC(=O)C=C[C@]4(C)[C@@]3(F)[C@@H](O)C[C@@]21C [Triamcinolone diacetate, reference compound] ?
Marked response: 0.8

Exam item: What does the record list as IC50 for C[C@H]1C[C@@H]2[C@H]([C@@H](O)C[C@@]3(C)[C@H]2CC[C@]3(O)C(=O)CO)[C@@]2(C)C=CC(=O)C=C12 [Methylprednisolone, reference compound] ?
Marked response: 0.02

Kindly consider the entry below.
Exam item: Could you tell me which IC50 is on file for CC[C@@H](C(=O)[C@@H](C)[C@@H](O)[C@H](C)[C@@H]1O[C@@H]([C@@H](CC)C(=O)O)CC[C@@H]1C)[C@H]1O[C@]2(C=C[C@@H](O)[C@]3(CC[C@@](C)([C@H]4CC[C@](O)(CC)[C@H](C)O4)O3)O2)[C@H](C)C[C@@H]1C [Salinomycin, sodium, reference compound] ?
Marked response: 2

---

Give measured LPS % cell toxicity for each item. Keep answers brief.
# Tested on: primary rat microglia
# protocol: Cell toxicity (dead cells, size <150 μm2) in LPS assay
# condition_parameters: primary HTS, 10 μM, LPS assay, dead cells size <150 μm2
Counter-ions that a name gives are not always drawn.
Give bare numbers, in %.

Recorded results for 2 compounds are shown here.
Exam item: // returns reported LPS % cell toxicity for input `Oc1c(I)cc(Cl)c2cccnc12`
Marked response: 1

Exam item: Please report the recorded LPS % cell toxicity for NC(=O)N1c2ccccc2C=Cc2ccccc21 [Carbamazepine] .
Marked response: 0

I'm hoping you can list LPS % cell toxicity for every compound here, please.
1. NS(=O)(=O)c1ccc(C(=O)O)cc1 [Carzenide]
2. CC(C)NCC(O)COc1ccc(COCCOC(C)C)cc1 (centres unmarked)
3. CCCCOc1ccc(CC(=O)NO)cc1
4. O=C([O-])C(O)[C@H](O)[C@@H](O)[C@H](O)[C@H](O)CO.O=C([O-])C(O)[C@H](O)[C@@H](O)[C@H](O)[C@H](O)CO.[Ca+2] (some centres unmarked) [Calcium Gluceptate]
5. CCN(CC)CCNC(C(=O)OCCC(C)C)c1ccccc1 (centres unmarked) [Camylofine Dihydrochloride]
6. C=CCN1C[C@H](C(=O)N(CCCN(C)C)C(=O)NCC)C[C@@H]2c3cccc4[nH]cc(c34)C[C@H]21

Marked response:
1. 0
2. 0
3. 0
4. 0
5. 1
6. 1

// for each compound below, give its LPS % cell toxicity
1. C=CC1=C(C(=O)O)N2C(=O)[C@@H](NC(=O)/C(=N\O)c3csc(N)n3)[C@H]2SC1
2. Cc1cc(O)ccc1Cl
3. COc1ccccc1Oc1c(NS(=O)(=O)c2ccc(C(C)(C)C)cc2)nc(-c2ncccn2)nc1OCCO

Marked response:
1: 0; 2: 0; 3: 0

Working through the 5 compounds below one at a time, give LPS % cell toxicity for each.
1. CC1(C)S[C@@H]2[C@H](NC(=O)Cc3ccccc3)C(=O)N2[C@H]1C(=O)O
2. C[C@H](CS)C(=O)N1CCC[C@H]1C(=O)O
3. O=c1[nH]c(=O)c2ccccc2o1
4. CCNC(=O)/C=C/c1cccc(Br)c1 [Cinromide]
5. CCCCCCCCCCCCCCCC(=O)OC[C@@H](NC(=O)C(Cl)Cl)[C@H](O)c1ccc([N+](=O)[O-])cc1 [Chloramphenicol Palmitate]

Marked response:
1: 0; 2: 1; 3: 1; 4: 0; 5: 1

Items follow; give LPS % cell toxicity for each.
1. CC1=C(C(=O)O)N2C(=O)[C@@H](NC(=O)[C@H](N)c3ccc(O)cc3)[C@H]2SC1
2. O=C(O)c1cc(=O)c2ccccc2o1
3. COC(=O)N/N=C/c1c[n+]([O-])c2ccccc2[n+]1[O-]

Marked response:
1: 0; 2: 0; 3: 1

---

Structures can show the parent of a compound that is named as a salt.
Below are LPS % cell toxicity values recorded for primary rat microglia.
One number for each entry, in %.

Exam item: So what's the measured LPS % cell toxicity for this one? CCCCC(CC)COc1ccc(-c2nc(-c3ccc(OC)cc3)nc(-c3ccc(OCC(CC)CCCC)cc3O)n2)c(O)c1 (stereo not shown)
Marked response: 0

Give LPS % cell toxicity for each listed item.
1. CC[C@@]1(O)C(=O)OCc2c1cc1n(c2=O)Cc2cc3c(CN(C)C)c(O)ccc3nc2-1 [Topotecan, Topotecan Hydrochloride]
2. NC[C@H]1O[C@H](O[C@H]2[C@H](O)[C@@H](O[C@H]3O[C@H](CO)[C@@H](O)[C@H](N)[C@H]3O)[C@H](N)C[C@@H]2N)[C@H](N)[C@@H](O)[C@@H]1O.O=S(=O)(O)O [Becanamycin Sulfate, Bekanamycin Sulfate]
3. Cc1cc(C(C)(C)CC(C)(C)C)ccc1OCCOCC[N+](C)(C)Cc1ccccc1.[Cl-] [Methylbenzethonium Chloride]

Marked response:
1: 40; 2: 0; 3: 10

I have 2 compounds here; please give me LPS % cell toxicity for each one.
1. OCC(S)CS (stereo not shown)
2. O=CCc1ccc(-c2ccccc2)cc1

Marked response:
1: 0; 2: 0

Need LPS % cell toxicity for each of these compounds.
1. C[N+](C)(C)CC(=O)O
2. CN(C)c1cnccn1.O=S(=O)(O)O [Ampyzine Sulfate]
3. Nc1cc(-c2ccncc2)c[nH]c1=O
4. CCN(CC)CCOC(=O)c1ccc(N)cc1
5. CC(NC(C)(C)C)C(=O)c1cccc(Cl)c1.Cl (stereo not shown)
6. CCCCC1C(=O)N(c2ccccc2)N(c2ccc(O)cc2)C1=O (stereo not shown)

Marked response:
[0, 1, 0, 0, 2, 97]

---

# Test system: LPS-induced microglia activation
# protocol: Image-based assay of LPS-induced microglia activation (HTS and dose response)
# Type: cell-based, rat
# condition_parameters: Rattus norvegicus, Microglia, 48 h; read-out: LPS % inhibition
Where a name gives a salt, the structure may show the parent alone.
Answer each item with its documented inhibition at 10 µM.
Numbers only, in %.

Study these solved cases before continuing.
Exam item: I have this molecule here, CC(=O)OCC(=O)NCCCOc1cccc(CN2CCCCC2)c1 [Roxatidine acetate] , and I need its recorded inhibition at 10 µM.
Marked response: 6

Exam item: For the molecule CC(C)NCC(O)COc1cccc2[nH]ccc12 (stereo not drawn) , what inhibition at 10 µM is on record?
Marked response: 24

Exam item: Quick one: inhibition at 10 µM of CN1CCN(c2c(F)cc3c(=O)c(C(=O)O)cn4c3c2SCC4)CC1 [Rufloxacin Hydrochloride] ?
Marked response: 21

Exam item: Sample `C=CC[N+]1([C@H]2C[C@H]3[C@@H]4CC[C@H]5C[C@H](O)[C@@H](N6CCOCC6)C[C@]5(C)[C@H]4CC[C@]3(C)[C@H]2OC(C)=O)CCCC1` — what was its inhibition at 10 µM?
Marked response: 5

Exam item: Item under review: CN[C@@H]1[C@@H](O)[C@@H](O[C@@H]2[C@@H](O)[C@H](O[C@H]3OC(CN)=CC[C@H]3N)[C@@H](N)C[C@H]2N)OC[C@]1(C)O [Sisomicin Sulfate] . Reported inhibition at 10 µM?
Marked response: 10

Need inhibition at 10 µM for each of these molecules.
1. CCCOc1cc(N)ccc1C(=O)OCCN(CC)CC
2. NC[C@@H]1O[C@H](O[C@H]2[C@@H](O)[C@H](O[C@@H]3[C@@H](O)[C@H](N)C[C@H](N)[C@H]3O[C@H]3O[C@H](CO)[C@@H](O)[C@H](O)[C@H]3N)O[C@@H]2CO)[C@H](N)[C@@H](O)[C@@H]1O [Paromomycin Sulfate]

Marked response:
14
14
